Assign Mean fluorescence intensity to each entry below.
# TARGET ENTITY: T1, human LAG-3 (full length, on the cell surface) (human, UniProt P18627 23-525)
# T1 construct: Full-length human LAG-3 expressed on cells; also called HEK293-hLAG-3; HEK293 cells transfected with LAG-3 gene
# T1 sequence: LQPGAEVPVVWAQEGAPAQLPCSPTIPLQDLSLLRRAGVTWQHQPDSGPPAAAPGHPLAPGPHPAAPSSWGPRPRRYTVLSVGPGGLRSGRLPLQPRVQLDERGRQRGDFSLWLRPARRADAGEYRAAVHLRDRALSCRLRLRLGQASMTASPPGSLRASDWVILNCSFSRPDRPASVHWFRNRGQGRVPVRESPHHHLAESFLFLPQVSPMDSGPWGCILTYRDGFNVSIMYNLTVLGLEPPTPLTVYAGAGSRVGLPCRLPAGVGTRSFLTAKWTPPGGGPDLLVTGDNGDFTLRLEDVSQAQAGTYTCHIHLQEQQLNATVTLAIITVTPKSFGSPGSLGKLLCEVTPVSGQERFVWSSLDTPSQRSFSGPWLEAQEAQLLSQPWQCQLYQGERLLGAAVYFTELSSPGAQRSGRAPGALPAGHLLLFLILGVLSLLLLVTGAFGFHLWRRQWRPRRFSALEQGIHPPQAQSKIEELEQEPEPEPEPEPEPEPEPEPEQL
# EXPERIMENT: FACS, HEK293-hLAG-3; 40.000 nM

Entry 409D4E10 (mouse antibody purified from hybridoma) (antibody, V domains shown, also called mAb112-409D4E10) VH: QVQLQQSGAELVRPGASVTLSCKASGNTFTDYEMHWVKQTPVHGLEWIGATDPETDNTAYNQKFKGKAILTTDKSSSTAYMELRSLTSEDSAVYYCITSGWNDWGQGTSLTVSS VL: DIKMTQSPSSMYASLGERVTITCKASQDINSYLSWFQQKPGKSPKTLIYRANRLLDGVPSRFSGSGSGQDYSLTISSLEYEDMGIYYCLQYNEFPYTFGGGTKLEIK , Mean fluorescence intensity reported as 153 MFI

Entry 409B11E12 (mouse antibody purified from hybridoma) (antibody, V domains shown, also called mAb104-409B11E12) VH: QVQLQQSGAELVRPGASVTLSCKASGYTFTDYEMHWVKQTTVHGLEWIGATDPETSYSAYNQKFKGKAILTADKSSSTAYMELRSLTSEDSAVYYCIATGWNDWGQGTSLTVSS VL: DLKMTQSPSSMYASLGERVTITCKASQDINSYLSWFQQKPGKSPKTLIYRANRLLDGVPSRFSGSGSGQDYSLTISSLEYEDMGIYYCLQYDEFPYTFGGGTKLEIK , Mean fluorescence intensity reported as 148 MFI

Entry 556F6B8 (mouse antibody purified from hybridoma) (antibody, V domains shown, also called mAb123-556F6B8) VH: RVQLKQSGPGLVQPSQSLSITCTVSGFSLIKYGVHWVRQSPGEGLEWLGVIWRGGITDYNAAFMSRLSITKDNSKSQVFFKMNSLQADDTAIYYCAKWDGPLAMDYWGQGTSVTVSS VL: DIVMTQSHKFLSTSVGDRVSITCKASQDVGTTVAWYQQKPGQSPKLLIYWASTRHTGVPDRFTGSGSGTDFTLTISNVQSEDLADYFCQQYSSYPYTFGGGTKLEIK , Mean fluorescence intensity reported as 81.8 MFI

Entry 405B8H3 (mouse antibody purified from hybridoma) (antibody, V domains shown, also called mAb103-405B8H3; 405B81-13) VH: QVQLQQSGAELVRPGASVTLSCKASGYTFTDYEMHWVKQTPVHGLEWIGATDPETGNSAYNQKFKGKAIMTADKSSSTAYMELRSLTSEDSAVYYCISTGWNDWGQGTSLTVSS VL: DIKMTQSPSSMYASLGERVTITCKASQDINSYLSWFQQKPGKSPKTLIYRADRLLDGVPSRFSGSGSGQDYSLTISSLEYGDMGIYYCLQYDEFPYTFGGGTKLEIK , Mean fluorescence intensity reported as 321 MFI
